Biological target: GmPOPB_S577A (Galerina marginata, UniProt H2E7Q8, S577A)
Construct: His-tag (TEV-cleavable) (cleaved yes); made in house; host or cells: E. coli BL21(DE3)
Sequence (H2E7Q8 1-730 S577A): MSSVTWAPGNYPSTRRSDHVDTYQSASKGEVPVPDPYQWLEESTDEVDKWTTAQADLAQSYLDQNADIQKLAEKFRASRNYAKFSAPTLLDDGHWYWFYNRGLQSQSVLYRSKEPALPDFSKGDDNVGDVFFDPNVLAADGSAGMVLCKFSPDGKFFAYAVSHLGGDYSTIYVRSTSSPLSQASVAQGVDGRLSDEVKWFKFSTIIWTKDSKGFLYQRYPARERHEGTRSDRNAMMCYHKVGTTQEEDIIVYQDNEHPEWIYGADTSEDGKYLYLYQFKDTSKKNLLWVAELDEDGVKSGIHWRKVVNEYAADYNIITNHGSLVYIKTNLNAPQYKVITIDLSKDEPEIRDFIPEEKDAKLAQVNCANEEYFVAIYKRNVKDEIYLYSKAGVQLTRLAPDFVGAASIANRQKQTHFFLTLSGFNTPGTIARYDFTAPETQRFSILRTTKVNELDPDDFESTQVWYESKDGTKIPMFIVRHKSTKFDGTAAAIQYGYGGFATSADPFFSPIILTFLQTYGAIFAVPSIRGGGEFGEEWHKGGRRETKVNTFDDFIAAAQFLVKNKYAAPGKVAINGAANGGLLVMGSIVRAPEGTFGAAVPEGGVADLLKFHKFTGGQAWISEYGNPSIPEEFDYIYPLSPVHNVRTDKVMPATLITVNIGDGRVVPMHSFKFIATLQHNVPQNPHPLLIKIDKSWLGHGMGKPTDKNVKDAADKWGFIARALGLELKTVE
Assay: ITC binding to inactive mutant GmPOPB_S577A
No end group written: not given here.
observationType: Kd (µM)

biosequence: VDQTLASGNDIC [12mer-recogSeq]
observationType: Kd
unitInfo: µM
value: 5
--
biosequence: WTAEHVDQTLASGNDIC [17mer-recogSeq, reference compound]
observationType: Kd
unitInfo: µM
value: 0.43
--
biosequence: TLASGNDIC [9mer-recogSeq]
observationType: Kd
unitInfo: µM
value: 121
